Molecular target: PLK1 (Homo sapiens, UniProt P53350)
Construct: Full-length, active GST-PLK1 is purified from Sf9 insect cells; made in house; host or cells: Sf9 insect cells
Sequence (P53350 whole entry): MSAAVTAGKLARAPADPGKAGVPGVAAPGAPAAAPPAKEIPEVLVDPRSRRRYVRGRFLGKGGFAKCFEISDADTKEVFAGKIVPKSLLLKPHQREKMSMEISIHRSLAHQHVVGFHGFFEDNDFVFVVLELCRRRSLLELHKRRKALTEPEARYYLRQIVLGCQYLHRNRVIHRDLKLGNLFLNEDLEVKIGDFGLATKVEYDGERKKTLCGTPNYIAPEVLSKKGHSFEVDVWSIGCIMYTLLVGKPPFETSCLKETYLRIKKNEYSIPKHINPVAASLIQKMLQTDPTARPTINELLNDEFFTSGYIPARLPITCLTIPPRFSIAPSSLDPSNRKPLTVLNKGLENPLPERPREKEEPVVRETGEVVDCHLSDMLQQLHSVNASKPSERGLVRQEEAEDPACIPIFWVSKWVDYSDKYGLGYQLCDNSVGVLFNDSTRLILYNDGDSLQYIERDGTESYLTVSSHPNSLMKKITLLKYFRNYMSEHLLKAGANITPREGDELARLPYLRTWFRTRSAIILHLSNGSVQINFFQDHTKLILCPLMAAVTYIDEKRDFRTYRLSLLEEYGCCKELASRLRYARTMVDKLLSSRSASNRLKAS
Assay: Biochemical Characterization Assay: HTRF kinase assay, GST-PLK1 phosphorylation of GST-p53
Details: GST-PLK1, GST-p53 substrate
pIC50: −log10 of the molar value.
recorded.endpoint: pIC50

Use these answered entries as a reference point.
compound | pIC50
CCc1cc(C(=O)NC2CCOCC2)ccc1Nc1ncc2c(n1)N(C1CCCC1)CC(F)(F)C(=O)N2C | 7.30 to 9.00
COc1cc(C(=O)N[C@H]2CC[C@H](N3CCN(CC4CC4)CC3)CC2)ccc1Nc1ncc2c(n1)N(C(C)C)CC(F)(F)C(=O)N2C | 7.30 to 9.00
CN1C(=O)C(F)(F)CN(C2CCCC2)c2nc(Nc3cc(F)c(C(=O)NC4CCN(C(=O)OC(C)(C)C)CC4)cc3F)ncc21 | 6.30 to 7.29

Query string: Requested field: pIC50. Item: Cc1cc(C(=O)NC2CCOCC2)ccc1Nc1ncc2c(n1)N(C1CCCC1)CC(F)(F)C(=O)N2C
Result string: 7.30 to 9.00

Query string: And what about the compound CCN1CCC(NC(=O)c2ccc(Nc3ncc4c(n3)N(C3CCCC3)CC(F)(F)C(=O)N4C)c(F)c2F)CC1 ?
Result string: 7.30 to 9.00

Query string: And what about the compound CN1CCC(NC(=O)c2ccc(Nc3ncc4c(n3)N(C3CCCC3)CC(F)(F)C(=O)N4C)c(OC(F)(F)F)c2)CC1 ?
Result string: 7.30 to 9.00

Query string: And what about the compound CN1C(=O)C(F)(F)CN(C2CCCC2)c2nc(Nc3ccc(C(=O)NC4CCNCC4)cc3C(F)(F)F)ncc21 ?
Result string: 7.30 to 9.00

Query string: And what about the compound COc1cc(C(N)=O)ccc1Nc1ncc2c(n1)N([C@@H]1C[C@H]1c1ccccc1)CC(F)(F)C(=O)N2C (relative stereo) ?
Result string: < 5.30

* * *

Target: PLK1 (Homo sapiens, UniProt P53350)
Construct: Full-length, active GST-PLK1 is purified from Sf9 insect cells; made in house; host or cells: Sf9 insect cells
Experiment: Biochemical Characterization Assay: HTRF kinase assay, GST-PLK1 phosphorylation of GST-p53
Conditions: GST-PLK1, GST-p53 substrate, ATP
pIC50: −log10 of the molar value.
Some compounds, each annotated with its measured pIC50.

Query string: Find the measured pIC50: item CCCN1C(=O)C(F)(F)CN(C2CCCC2)c2nc(Nc3ccc(C(N)=O)cc3)ncc21 [Example I-145] , target or system PLK1 (Homo sapiens, UniProt P53350).
Result string: 5.30 to 6.30

Query string: And what about the compound COc1cc(C(=O)NCC2CCCCC2)ccc1Nc1ncc2c(n1)N(C1CCCC1)CC(F)(F)C(=O)N2C [Example I-32] ?
Result string: 6.30 to 7.29

Query string: And what about the compound COc1cc(C(=O)N[C@@H]2CCN(Cc3ccccc3)C2)ccc1Nc1ncc2c(n1)N(C1CCCC1)CC(F)(F)C(=O)N2C [Example I-101] ?
Result string: 7.30 to 9.00

Query string: And what about the compound COc1cc(C(=O)NC2CC2)ccc1Nc1ncc2c(n1)N(C1CCCC1)CC(F)(F)C(=O)N2C [Example I-26] ?
Result string: 7.30 to 9.00

* * *

Target: PLK1 (Homo sapiens)
Construct: Full-length, active GST-PLK1 is purified from Sf9 insect cells; made in house; host or cells: Sf9 insect cells
Assay: Biochemical Characterization Assay: HTRF kinase assay, GST-PLK1 phosphorylation of GST-p53
Conditions: GST-PLK1, GST-p53 substrate
pIC50: −log10 of the molar value.
recorded.endpoint: pIC50

chemical.smiles | experimental.value
COc1cc(C(=O)NC2CCN(C)CC2)ccc1Nc1ncc2c(n1)N(CCc1ccccc1)CC(F)(F)C(=O)N2C | 7.30 to 9.00
COc1cc(C(=O)NC2CCNCC2)c(F)cc1Nc1ncc2c(n1)N(C1CCCC1)CC(F)(F)C(=O)N2C | 7.30 to 9.00
COc1cc(C(N)=O)ccc1Nc1ncc2c(n1)N(CCc1cccs1)CC(F)(F)C(=O)N2C | 6.30 to 7.29
COc1ccc(CN2CC(F)(F)C(=O)N(C)c3cnc(Nc4ccc(C(=O)NC5CCN(C)CC5)cc4OC)nc32)cc1 | 6.30 to 7.29
CNC(=O)c1ccc(Nc2ncc3c(n2)N(C2CCCC2)CC(F)(F)C(=O)N3C)c(C)c1 | 7.30 to 9.00

Query string: Requested field: pIC50. Item: CNC(=O)c1cc(OC)c(Nc2ncc3c(n2)N(C2CCCC2)CC(F)(F)C(=O)N3C)cc1F
Result string: 7.30 to 9.00

Query string: And what about the compound CC(C)Oc1cc(C(=O)NC2CCN(C)CC2)ccc1Nc1ncc2c(n1)N(C1CCCC1)CC(F)(F)C(=O)N2C ?
Result string: 7.30 to 9.00

* * *

Target: PLK1 (Homo sapiens, UniProt P53350)
Construct: Full-length, active GST-PLK1 is purified from Sf9 insect cells; made in house; host or cells: Sf9 insect cells
Assay: Biochemical Characterization Assay: HTRF kinase assay, GST-PLK1 phosphorylation of GST-p53
Details: GST-PLK1, GST-p53 substrate
recorded.endpoint: IC50

compound | IC50
Cc1cc(C(=O)NC2CCN(C(=O)OC(C)(C)C)CC2)ccc1Nc1ncc2c(n1)N(C1CCCC1)CC(F)(F)C(=O)N2C [Example I-191] | 1 to 50 nM
CCc1cc(C(=O)NCCCN(C)C)ccc1Nc1ncc2c(n1)N(C1CCCC1)CC(F)(F)C(=O)N2C [Example I-199] | 1 to 50 nM
CNC(=O)c1ccc(Nc2ncc3c(n2)N(C2CCCC2)CC(F)(F)C(=O)N3C)c(C(F)(F)F)c1 [Example I-210] | 51 to 500 nM
CN(C)CCCNC(=O)c1ccc(Nc2ncc3c(n2)N(C2CCCCC2)CC(F)(F)C(=O)N3C)cc1 [Example I-265] | 1 to 50 nM
COc1cc(C(=O)NC2CCOCC2)ccc1Nc1ncc2c(n1)N(CCc1cccs1)CC(F)(F)C(=O)N2C [Example I-274] | 51 to 500 nM

Query string: Requested field: IC50. Item: CN1C(=O)C(F)(F)CN(C2CCCC2)c2nc(Nc3ccc(C(=O)NC4CCN(C(=O)OC(C)(C)C)CC4)cc3C(F)(F)F)ncc21 [Example I-211]
Result string: 51 to 500 nM

Query string: And what about the compound COc1cc(C(=O)NC2CCN(S(C)(=O)=O)CC2)ccc1Nc1ncc2c(n1)N(C1CCCCC1)CC(F)(F)C(=O)N2C [Example I-268] ?
Result string: 51 to 500 nM

Query string: And what about the compound CCOc1cc(C(N)=O)ccc1Nc1ncc2c(n1)N(C1CCCC1)CC(F)(F)C(=O)N2C [Example I-223] ?
Result string: 1 to 50 nM

* * *

Some compounds, each annotated with its measured pIC50.
Target: PLK1 (Homo sapiens)
Construct: Full-length, active GST-PLK1 is purified from Sf9 insect cells; made in house; host or cells: Sf9 insect cells
Experiment: Biochemical Characterization Assay: HTRF kinase assay, GST-PLK1 phosphorylation of GST-p53
Conditions: GST-PLK1, GST-p53 substrate
pIC50: −log10 of the molar value.

chemical.smiles | assay.target | pIC50
CCCN1C(=O)C(F)(F)CN(C2CCCC2)c2nc(Nc3ccc(C(N)=O)cc3OC)ncc21 | PLK1 (Homo sapiens) | 5.30 to 6.30
CN1CCC(NC(=O)c2ccc(Nc3ncc4c(n3)N(C3CCCC3)CC(F)(F)C(=O)N4C)c(Cl)c2)CC1 | PLK1 (Homo sapiens) | 7.30 to 9.00
COc1cc(C(N)=O)ccc1Nc1ncc2c(n1)N(C1CCCCC1)CC(F)(F)C(=O)N2C | PLK1 (Homo sapiens) | 7.30 to 9.00

Proceed to the following item.
Query string: Requested field: pIC50. Item: CNC(=O)c1ccc(Nc2ncc3c(n2)N(C2CCCC2)CC(F)(F)C(=O)N3C)c(F)c1F
Result string: 7.30 to 9.00

* * *

Target: PLK1 (Homo sapiens)
Construct: Full-length, active GST-PLK1 is purified from Sf9 insect cells; made in house; host or cells: Sf9 insect cells
Assay: Biochemical Characterization Assay: HTRF kinase assay, GST-PLK1 phosphorylation of GST-p53
Conditions: GST-PLK1, GST-p53 substrate, ATP
Experimental: Biochemical Characterization Assay Full-length, active GST-PLK1 is purified from Sf9 insect cells, and full-length GST-p53 is purified from E. coli. Anti-phospho p53 antibody is from Cell Signaling Technology. […] Six microliters of GST-PLK1 (3 ug/mL) in Kinase Assay Buffer are then added and the solution incubated at 37° C. for 35 minutes. […] The HTRF signal is read on an Envision reader from PerkinElmer Life and Analytical Sciences.
recorded.endpoint: IC50

Use these answered entries as a reference point.
molecule | recorded.endpoint | experimental.value
COc1cc(C(=O)NCCCN2CCC(O)CC2)ccc1Nc1ncc2c(n1)N(C1CCCC1)CC(F)(F)C(=O)N2C [Example I-105] | IC50 | 1 to 50 nM
COc1cc(C(=O)N[C@@H]2CNC[C@H]2O)ccc1Nc1ncc2c(n1)N(C1CCCC1)CC(F)(F)C(=O)N2C [Example I-104] | IC50 | 1 to 50 nM
COc1cc(C(=O)NCc2ccccc2)ccc1Nc1ncc2c(n1)N(C1CCCC1)CC(F)(F)C(=O)N2C [Example I-35] | IC50 | 51 to 500 nM
COc1cc(C(=O)NCCCN2CCNCC2)ccc1Nc1ncc2c(n1)N(C1CCCC1)CC(F)(F)C(=O)N2C [Example I-95] | IC50 | 1 to 50 nM

Query string: Requested field: IC50. Item: COc1cc(C(=O)NCCCN)ccc1Nc1ncc2c(n1)N(C1CCCC1)CC(F)(F)C(=O)N2C [Example I-74]
Result string: 1 to 50 nM

Query string: And what about the molecule CCCN1C(=O)C(F)(F)CN(C2CCCC2)c2nc(Nc3ccc(C(=O)NCCCN(C)C)cc3)ncc21 [Example I-148] ?
Result string: 500 to 5000 nM

Query string: And what about the molecule COc1cc(C(=O)NCC2CCN(C(=O)OC(C)(C)C)C2)ccc1Nc1ncc2c(n1)N(C1CCCC1)CC(F)(F)C(=O)N2C (stereo not shown) [Example I-92] ?
Result string: 51 to 500 nM
